# Test system: Paracentrotus lividus
# assay.name: Antimitotic microtubule destabilizing activity in Paracentrotus lividus L embryos assessed as induction of embryo spinning
endpoint.name: EC (µM)
# output: bare number, implied unit µM

For orientation, consider the following solved cases.
{"columns": ["compound", "test.target", "endpoint.name", "readout.value"],
 "data": [
  ["COc1ccc2c(c1)OC(N)=C(C#N)C2c1cc(OC)c2c(c1)OCCO2 (configuration not stated)", "Paracentrotus lividus", "EC", 0.1],
  ["COc1ccc2c(c1)OC(N)=C(C#N)C2c1cc(OC)c2c(c1OC)OCO2 (configuration not stated)", "Paracentrotus lividus", "EC", 4],
  ["COc1ccc2c(c1)OC(N)=C(C#N)C2c1ccc(OC)c(OC)c1 (configuration not stated)", "Paracentrotus lividus", "EC", 1],
  ["COc1ccc2c(c1)OC(N)=C(C#N)C2c1cc(OC)c2c(c1)OCO2 (configuration not stated)", "Paracentrotus lividus", "EC", 0.05],
  ["COc1cccc(C2C(C#N)=C(N)Oc3cc(OC)ccc32)c1 (configuration not stated)", "Paracentrotus lividus", "EC", 0.05]
]}

// switching to the query compound
Ask: Check the records and state EC for COc1ccc2c(c1)OC(N)=C(C#N)C2c1cc2c(c([N+](=O)[O-])c1)OCCO2 (configuration not stated)
Reply: 1
